# PROCEDURE DETAILS: n-Octanol-phosphate buffer partition coefficient, log D at pH 7.4 by shake-flask method
# Assay type: physicochemical
PROPERTY: logD

STRUCTURE SMILES	PROPERTY	RESULT NUMBER
CCN(CC)c1ccc2c(-c3ccccc3C(=O)OCCCOc3ccc(-c4c5nc(c(-c6ccccc6)c6ccc([nH]6)c(-c6ccccc6)c6nc(c(-c7ccccc7)c7ccc4[nH]7)C=C6)C=C5)cc3)c3ccc(=[N+](CC)CC)cc-3oc2c1.[I-]	logD	3.53
Oc1ccc(-c2c3nc(c(-c4ccccc4)c4ccc([nH]4)c(-c4ccccc4)c4nc(c(-c5ccccc5)c5ccc2[nH]5)C=C4)C=C3)cc1	logD	2.3

I = CCN(CC)c1ccc2c(-c3ccccc3C(=O)O)c3ccc(=[N+](CC)CC)cc-3oc2c1
II = CN(C)c1ccc2cc3ccc(N(C)C)cc3[n+](CCCOc3ccc(-c4c5nc(c(-c6ccccc6)c6ccc([nH]6)c(-c6ccccc6)c6nc(c(-c7ccccc7)c7ccc4[nH]7)C=C6)C=C5)cc3)c2c1.[I-]
III = CN(C)c1ccc2cc3ccc(N(C)C)cc3nc2c1
## Task Form: Sort by [logD] Order [ ascending ] Please list the labels according to the requested order.
## Result III, II, I
